Target: HLA-B*57:01
Assay: IEDB peptide-MHC binding, purified MHC/direct/fluorescence; filed as Kd, often an IC50 or EC50 that approximates it; bounds were set here for any values at or beyond the usual limits of such assays
Details: source organism: Vibrio vulnificus
Attribute Measured: Kd (nM)
Hi! Could you send only the number? It should be in nM, unit omitted.

Which Kd is listed for "LAFSTRFSF" ?
292

----------
Target: HLA-B*46:01
Test: IEDB peptide-MHC binding, purified MHC/direct/fluorescence; filed as Kd, often an IC50 or EC50 that approximates it; bounds were set here for any values at or beyond the usual limits of such assays
Conditions: source organism: Bacillus anthracis
Attribute Measured: Kd

Which Kd is listed for "KVQEWYLSY" ?
≥ 20 µM

----------
Biological target: HLA-A*02:01
Assay: IEDB peptide-MHC binding, purified MHC/direct/fluorescence; filed as Kd, often an IC50 or EC50 that approximates it; bounds were set here for any values at or beyond the usual limits of such assays
Conditions: source organism: Orthohantavirus negraense
pKd: −log10 of the molar value.
Attribute Measured: pKd

Which pKd is listed for "MSRKLHRYI" ?
≤ 4.70

----------
Biological target: HLA-A*11:01
Experiment: IEDB peptide-MHC binding, purified MHC/direct/fluorescence; filed as Kd, often an IC50 or EC50 that approximates it; bounds were set here for any values at or beyond the usual limits of such assays
Settings: source organism: Rickettsia prowazekii
Attribute Measured: Kd

Could you share what Kd was measured for "RRNRKALWL" , tested on HLA-A*11:01?
≥ 20 µM

----------
Biological target: HLA-B*27:03
Assay: IEDB peptide-MHC binding, purified MHC/competitive/fluorescence; filed as Kd, often an IC50 or EC50 that approximates it; bounds were set here for any values at or beyond the usual limits of such assays
Details: source organism: Homo sapiens
Attribute Measured: Kd

> print(dat)
   macromolecule.sequence  observed.measurement
1               FMDPGIFPR               ≥ 20 µM

Moving on to another sequence below.
Which Kd is listed for "LTDSSTLLV" ?
≥ 20 µM

----------
Target: HLA-B*45:01
Test: IEDB peptide-MHC binding, purified MHC/competitive/radioactivity; filed as Kd, often an IC50 or EC50 that approximates it; bounds were set here for any values at or beyond the usual limits of such assays
Settings: source organism: Mammarenavirus lassaense
pKd: −log10 of the molar value.
Attribute Measured: pKd

Which pKd is listed for "SDLDMLTQS" ?
≤ 4.11

----------
Molecular target: HLA-A*26:02
Assay: IEDB peptide-MHC binding, purified MHC/competitive/fluorescence; filed as Kd, often an IC50 or EC50 that approximates it; bounds were set here for any values at or beyond the usual limits of such assays
Conditions: source organism: Vaccinia virus WR
Attribute Measured: Kd

> print(dat)
   macromolecule.sequence  study.target  observed.measurement
1               IHIPGDTLF   HLA-A*26:02               ≥ 20 µM

Moving on to another sequence below.
Which Kd is listed for "SLFTEQAFY" ?
≥ 20 µM

----------
Biological target: HLA-A*68:01
Assay: IEDB peptide-MHC binding, purified MHC/competitive/radioactivity; filed as Kd, often an IC50 or EC50 that approximates it; bounds were set here for any values at or beyond the usual limits of such assays
Conditions: source organism: Triticum aestivum
Attribute Measured: Kd

Which Kd is listed for "LQQHNIVHGK" ?
≥ 47.9 µM

----------
Target: HLA-A*02:03
Experiment: IEDB peptide-MHC binding, purified MHC/competitive/fluorescence; filed as Kd, often an IC50 or EC50 that approximates it; bounds were set here for any values at or beyond the usual limits of such assays
Settings: source organism: Salmonella enterica subsp. enterica serovar Typhi
Attribute Measured: pKd
Friendly reminder that pKd comes from taking -log10 of the concentration in mol/L.

Could you share what pKd was measured for "SVIDHIHYM" , tested on HLA-A*02:03?
8.51

----------
Measured pKd, listed per entry for reference.
Biological target: HLA-B*15:01
Test: IEDB peptide-MHC binding, purified MHC/competitive/radioactivity; filed as Kd, often an IC50 or EC50 that approximates it; bounds were set here for any values at or beyond the usual limits of such assays
Details: source organism: Vaccinia virus WR
Friendly reminder that pKd comes from taking -log10 of the concentration in mol/L.

# example entries with known answers
> print(dat)
   macromolecule.sequence  study.target  attribute.measured  observed.measurement
1               SEIKRGLFF   HLA-B*15:01                 pKd                  6.49
2               LINNGKCTF   HLA-B*15:01                 pKd                  7.21
3               ANISTILYF   HLA-B*15:01                 pKd                  6.89
4               RMFHFFEHE   HLA-B*15:01                 pKd                  7.17
5               LSEKWFTHA   HLA-B*15:01                 pKd                  4.72

Which pKd is listed for "IIIPLSVSI" ?
6.53

Also need "QNHKKSAHF" , thanks.
6.39

Also need "RSIRKFNTM" , thanks.
8.36

Also need "LNINKNGSF" , thanks.
6.32

Also need "EQKLRPNSF" , thanks.
5.05

Also need "EKTQYTNDF" , thanks.
4.90

Also need "EIFKHLVFF" , thanks.
7.91

Also need "NQYLLTMFF" , thanks.
8.92

----------
Biological target: HLA-A*23:01
Experiment: IEDB peptide-MHC binding, purified MHC/competitive/radioactivity; filed as Kd, often an IC50 or EC50 that approximates it; bounds were set here for any values at or beyond the usual limits of such assays
Settings: source organism: Mammarenavirus juninense
pKd: −log10 of the molar value.
Attribute Measured: pKd

Could you share what pKd was measured for "GEKSRCYSIY" , tested on HLA-A*23:01?
≤ 4.15

----------
Biological target: HLA-B*51:01
Assay: IEDB peptide-MHC binding, purified MHC/competitive/radioactivity; filed as Kd, often an IC50 or EC50 that approximates it; bounds were set here for any values at or beyond the usual limits of such assays
Settings: source organism: Dengue virus 4 Philippines/H241/1956
Attribute Measured: Kd

Which Kd is listed for "LPLPWAAGAD" ?
≥ 22.9 µM

----------
Biological target: HLA-B*08:01
Assay: IEDB peptide-MHC binding, purified MHC/competitive/radioactivity; filed as Kd, often an IC50 or EC50 that approximates it; bounds were set here for any values at or beyond the usual limits of such assays
Details: source organism: Dengue virus 2 Jamaica/1409/1983
Attribute Measured: Kd

Could you share what Kd was measured for "RDALDNLAVL" , tested on HLA-B*08:01?
1.16 µM

----------
Biological target: HLA-B*40:02
Test: IEDB peptide-MHC binding, purified MHC/competitive/fluorescence; bounds were set here for any values at or beyond the usual limits of such assays
Settings: source organism: Gorilla gorilla gorilla
pIC50: −log10 of the molar value.
Attribute Measured: pIC50

Which pIC50 is listed for "RYSHWTKL" ?
≤ 4.70

----------
Molecular target: HLA-B*58:01
Assay: IEDB peptide-MHC binding, purified MHC/direct/fluorescence; filed as Kd, often an IC50 or EC50 that approximates it; bounds were set here for any values at or beyond the usual limits of such assays
Conditions: source organism: SARS-CoV1
Attribute Measured: Kd

Which Kd is listed for "TQDLFLPFY" ?
≥ 31.5 µM

----------
Measured pKd, listed per entry for reference.
Target: HLA-A*02:17
Assay: IEDB peptide-MHC binding, purified MHC/competitive/radioactivity; filed as Kd, often an IC50 or EC50 that approximates it; bounds were set here for any values at or beyond the usual limits of such assays
Conditions: source organism: Dengue virus 3 China/80-2/1980
Friendly reminder that pKd comes from taking -log10 of the concentration in mol/L.

> print(dat)
   macromolecule.sequence  observed.measurement
1              GMLWMADVPL                  7.19

Moving on to another sequence below.
Could you share what pKd was measured for "FVGKTVWFV" , tested on HLA-A*02:17?
7.54

----------
Target: HLA-A*02:01
Test: IEDB peptide-MHC binding, purified MHC/direct/fluorescence; filed as Kd, often an IC50 or EC50 that approximates it; bounds were set here for any values at or beyond the usual limits of such assays
Conditions: source organism: Yersinia pestis
Attribute Measured: Kd (nM)
Hi! Could you send only the number? It should be in nM, unit omitted.

Which Kd is listed for "WLWVSSSDM" ?
1000

----------
Measured pIC50, listed per entry for reference.
Target: HLA-A*02:01
Assay: IEDB peptide-MHC binding, purified MHC/competitive/fluorescence; bounds were set here for any values at or beyond the usual limits of such assays
Settings: source organism: Zaire ebolavirus
pIC50: −log10 of the molar value.

# example entries with known answers
> print(dat)
   macromolecule.sequence  observed.measurement
1               LFDLDEDDE                ≤ 3.67
2               IHHASAPLT                ≤ 3.42
3               VKYLEGHGF                ≤ 3.80

Which pIC50 is listed for "DGIRGFPRC" ?
≤ 3.90

Also need "MNHKNKFMA" , thanks.
≤ 3.85

Also need "ISGQSPART" , thanks.
≤ 3.86

Also need "YQATGFGTN" , thanks.
≤ 3.84

Also need "QAFEAGVDF" , thanks.
≤ 3.32

Also need "ELSFTVVSN" , thanks.
≤ 3.66

Also need "HHRRTDNDS" , thanks.
≤ 4.14

Also need "LTAGLSVQQ" , thanks.
≤ 3.53
